growth for assorted compounds
tested on: BT-549 breast; experiment: NCI-60 one-dose screen, 48 h (100 = growth as untreated, 0 = no growth, -100 = all killed); conditions: 10 µM
Compounds without any hit were thinned out: in the full panel of roughly 83,000, 20% have a hit.
Kindly provide the numeric value in % only, without the unit symbol.

Below are worked cases with known answers.
>>> value_reported("COc1ccc2c(NCCCCCCCCNc3c4ccccc4nc4cc(OC)ccc34)c3ccccc3nc2c1")
-95.9
>>> value_reported("Nc1ncnc2[nH]ncc12")
-32.8
>>> value_reported("CSC[C@H](NC(=O)COc1cccc2cnccc12)C(=O)NC(Cc1ccccc1)C(O)C(=O)N1CSC[C@H]1C(=O)NC(C)(C)C (stereo partly specified)")
105
>>> value_reported("O=C(/C=C\\c1ccc(O)cc1)c1ccccc1")
37.4
>>> value_reported("CC(=Nc1ccccc1)C1=C(O)C(Cc2cccc(F)c2)NC1=O (stereo unspecified)")
-20.2
>>> value_reported("CC(=O)OCC1CCCO1 (stereo unspecified)")
107

// lookup growth for O=c1[nH]n(-c2ccccc2)c(=O)cc1Cl 100

* * *

growth for assorted compounds
tested on: MDA-MB-435 melanoma; experiment: NCI-60 one-dose screen, 48 h (100 = growth as untreated, 0 = no growth, -100 = all killed); conditions: 10 µM
This is part of a sample that, as a whole, favours compounds with a hit. Of some 83,000 tested, about 20% had one in any assay.
Kindly provide the numeric value in % only, without the unit symbol.

>>> value_reported("CCOc1ccc(I)cc1")
112
>>> value_reported("CCOC(=O)C/C(C)=N\\O")
107
>>> value_reported("C=CCc1cc(C(C)=O)cc(OC)c1O")
113

// lookup growth for CC(=O)OCC1CCCO1 (stereo unspecified) 100

// lookup growth for CCC(C)(C)C1CCC(O)CC1 (stereo unspecified) 112

// lookup growth for O=C(O)/C=C/c1ccc2c(c1)CCC2 99.8

* * *

Test system: NCI-H322M lung
Test: NCI-60 one-dose screen, 48 h (100 = growth as untreated, 0 = no growth, -100 = all killed)
Details: 10 µM
Procedure: Growth inhibition of the NCI-H322M human Non-Small Cell Lung tumor cell line is measured as a screen for anti-cancer activity. Cells are grown in 96 well plates and exposed to the test compound for 48 hours. Compounds are tested at a single concentration, which is 10^-5 M for most compounds. The reported endpoint is percent growth (GI% or GIPRCNT), where numbers from 0 - 100% represent growth inhibition, and numbers from -100% - 0 represent cell death. […]
The panel holds about 83,000 compounds, 20% with a hit somewhere; the sample as a whole holds those more often.
measured_parameter: growth (%)
Kindly provide the numeric value in % only, without the unit symbol.

Below are worked cases with known answers.
>>> value_reported("CCOc1ccc(Br)cc1/C=N\\N=C\\c1cc(Br)ccc1OCC")
111
>>> value_reported("C=CCNC(=O)c1ccc(OC)cc1")
98.5
>>> value_reported("Cc1ccc(O)c(C(=O)c2ccccc2)c1")
138
>>> value_reported("COC(=O)C(O)c1ccccc1 (stereo unspecified)")
125
>>> value_reported("COC(=O)C(C)Oc1ccc(OC#N)cc1 (stereo unspecified)")
100
>>> value_reported("O=C(/C=C/C(=O)c1ccccc1)c1ccccc1")
116

// lookup growth for CC1NC(=O)NC1CCCCCC(=O)O (stereo unspecified) 132

// lookup growth for CC(C)(C)c1cc(O)c(C(C)(C)C)cc1O 100

// lookup growth for COc1cc2c(cc1OC)[C@H](C(=O)O)[C@@H](c1ccc(OC(C)C)c(OC)c1)N(C)C2=O 83.5

// lookup growth for Cc1cc(N)c(S(=O)(=O)O)c(N)c1 101

* * *

growth for assorted compounds
test system: SK-MEL-28 melanoma; experiment: NCI-60 one-dose screen, 48 h (100 = growth as untreated, 0 = no growth, -100 = all killed); details: 10 µM
Compounds without any hit were thinned out: in the full panel of roughly 83,000, 20% have a hit.
Kindly provide the numeric value in % only, without the unit symbol.

>>> value_reported("O=C1N(C[P+](c2ccccc2)(c2ccccc2)c2ccccc2)CCCN1C[P+](c1ccccc1)(c1ccccc1)c1ccccc1")
102

// lookup growth for O=C(CCl)N1CCN(C/C=C/c2ccccc2)CC1 94.4

// lookup growth for CCOC(=O)CCCC(=O)OCC 109

// lookup growth for S=C(Nc1ccccc1)N1CCCCC1 103

* * *

test system: MOLT-4 leukemia; assay: NCI-60 one-dose screen, 48 h; conditions: 10 µM
The panel holds about 83,000 compounds, 20% with a hit somewhere; the sample as a whole holds those more often. Calls of active or inactive are those of the source. Rule for the calls: active = growth percent below 10; inactive = the rest.
Write down one outcome, taken from 1 for active, 0 for inactive

>>> qualitative_label("CC1(O)CCCCC1O (stereo not given)")
0
>>> qualitative_label("CC[N+](C)(CC)CCO")
0
>>> qualitative_label("OCc1ccc(-c2ccc(-c3ccc(CO)s3)o2)s1")
0
>>> qualitative_label("O=C(NCc1ccco1)Nc1c(Cl)cc(Cl)cc1Cl")
0
>>> qualitative_label("N#CC1(Nc2ccc3c4c(cccc24)CC3)CCCCC1")
0
>>> qualitative_label("CC1(c2ccccc2)NC(=O)NC1=O (stereo not given)")
0
>>> qualitative_label("Nc1ccc(N=Nc2ccc(S(=O)(=O)O)cc2)c2ccccc12")
0
>>> qualitative_label("O=C(O)c1ccccc1NCc1ccco1")
0

Entry CCc1ccc(/C(C#N)=C/C=C/c2ccccc2)cc1 : call = ? 0

Entry O=C1c2ccccc2C(=O)N1OCc1ccccc1 : call = ? 0

Entry CC1=CC(=O)c2ccccc2C1=O : call = ? 0

Entry O=c1cc(-c2ccccc2)[nH]c(=S)[nH]1 : call = ? 0

Entry CC(=Nc1ccccc1)C1=C(O)C(Cc2cccc(F)c2)NC1=O (stereo not given) : call = ? 1

Entry O=[N+]([O-])c1ccc(-c2noc(-c3cccs3)n2)cc1 : call = ? 0

Entry CCc1nn(Cc2ccccc2)c2nc(C)c(CCc3ccccc3)c(Cl)c12 : call = ? 0

Entry CCOC(=O)c1ccc(NC(=S)P(=O)(c2ccccc2)c2ccccc2)cc1 : call = ? 0

Entry O=C(CS)Nc1ccc2ccccc2c1 : call = ? 0

Entry O=C1OC(=O)C2C1C1(Cl)C(Cl)=C(Cl)C2(Cl)C2C(=O)OC(=O)C21 (stereo not given) : call = ? 0

Entry C#Cc1cccc(NC(=O)c2ccc(Cl)cc2Cl)c1 : call = ? 0

Entry c1ccc(Sc2ccccc2)cc1 : call = ? 0

Entry CN(C)CCN(Cc1ccccc1)c1ccccc1 : call = ? 0

Entry CCCC1(c2ccccc2)NC(=O)NC1=O (stereo not given) : call = ? 0

Entry C[C@@H](c1ccccc1)[C@@H](C(=O)O)c1ccccc1 : call = ? 0

Entry CC(=O)c1ccc(C)c(N)c1 : call = ? 0

Entry CC1CCCC(CC(N)=O)CC1 (stereo not given) : call = ? 0

Entry CC(=O)/C(Cc1ccccc1)=N/O : call = ? 0

Entry N#C/C(=C\c1cc(O)c(O)c(O)c1)C(N)=O : call = ? 0

Entry CCCCOC(OCCCC)c1ccccc1 : call = ? 0

Entry CC(=O)c1ccc(C(C)(C)C)cc1 : call = ? 0

Entry O=C1OC(c2ccc(F)cc2)CC1CN1CCOCC1 (stereo not given) : call = ? 0

* * *

tested on: MOLT-4 leukemia; experiment: NCI-60 one-dose screen, 48 h; settings: 10 µM
This is part of a sample that, as a whole, favours compounds with a hit. Of some 83,000 tested, about 20% had one in any assay. Active and inactive are the calls of the source. Rule for the calls: active = growth percent below 10; inactive = the rest.
Write down one outcome, taken from active, inactive

Entry O=c1[nH]cc(Cl)cc1O : call = ? inactive

Entry NC(C(=O)O)c1ccc([N+](=O)[O-])cc1 (centres undefined) : call = ? inactive

Entry COC(=O)Nc1nc2ccc(C(=O)c3cccs3)cc2[nH]1 : call = ? active

* * *

tested on: BT-549 breast; assay: NCI-60 one-dose screen, 48 h (100 = growth as untreated, 0 = no growth, -100 = all killed); settings: 10 µM
This is part of a sample that, as a whole, favours compounds with a hit. Of some 83,000 tested, about 20% had one in any assay.
growth for assorted compounds
Kindly provide the numeric value in % only, without the unit symbol.

Item: C#CC(C)(O)c1ccc(Cl)cc1 (configuration not stated) Test system: BT-549 breast Read-out: growth Value: ? 105

Item: CN(C)c1ccc(S(=O)(=O)O)cc1 Test system: BT-549 breast Read-out: growth Value: ? 98.6

Item: OCc1ccc(-c2ccc(-c3ccc(CO)s3)o2)s1 Test system: BT-549 breast Read-out: growth Value: ? 58.4

* * *

System: HOP-92 NSCLC
Assay: NCI-60 one-dose screen, 48 h (100 = growth as untreated, 0 = no growth, -100 = all killed)
Settings: 10 µM
Method: Growth inhibition of the HOP-92 human Non-Small Cell Lung tumor cell line is measured as a screen for anti-cancer activity. Cells are grown in 96 well plates and exposed to the test compound for 48 hours. Compounds are tested at a single concentration, which is 10^-5 M for most compounds. The reported endpoint is percent growth (GI% or GIPRCNT), where numbers from 0 - 100% represent growth inhibition, and numbers from -100% - 0 represent cell death. […]
This is part of a sample that, as a whole, favours compounds with a hit. Of some 83,000 tested, about 20% had one in any assay.
measured_parameter: growth (%)
Kindly provide the numeric value in % only, without the unit symbol.

>>> value_reported("CC(=O)OCC1=CC2OC(=O)C3=COC(OC4OC(CO)C(O)C(O)C4O)C1C32 (stereo not given)")
89.3
>>> value_reported("CCOC(=O)c1ccc(Nc2sc(C(=O)c3cccc([N+](=O)[O-])c3)c(N)c2C#N)cc1")
43
>>> value_reported("COS(=O)(=O)c1ccc(Br)cc1")
98.1
>>> value_reported("O=C(O)CCCC(=O)O")
72.6
>>> value_reported("C=CCNc1nnc(C)s1")
83

// lookup growth for CC(=O)N(C)c1ccc([N+](=O)[O-])cc1 94.5

// lookup growth for CCN=c1cc2sc3cc(NCC)c(C)cc3nc-2cc1C 16.3

// lookup growth for C=C1CC/C=C(\C)C(=O)C[C@@H]2[C@@H]1CC2(C)C 88.4

Data provenance is PubChem BioAssay (NCI).
